System: Rattus norvegicus
Assay summary: Compound was tested for the vasopressor activity against phenoxybenzamine treated rats, after intravenous injection.
Format: functional

Smiles code | Potency
C[C@@H](C(=O)N[C@H](CCCN=C(N)N)C(=O)NCC(N)=O)N(C)C(=O)[C@@H]1CSSCCC(=O)N[C@@H](Cc2ccc(O)cc2)C(=O)N[C@@H](Cc2ccccc2)C(=O)N[C@@H](CCC(N)=O)C(=O)N[C@@H](CC(N)=O)C(=O)N1 | 0.07 IU mg-1
C[C@@H](C(=O)N[C@H](CCCN=C(N)N)C(=O)NCC(N)=O)N(C)C(=O)[C@@H]1CSSC[C@H](N)C(=O)N[C@@H](Cc2ccc(O)cc2)C(=O)N[C@@H](Cc2ccccc2)C(=O)N[C@@H](CCC(N)=O)C(=O)N[C@@H](CC(N)=O)C(=O)N1 | 0.11 IU mg-1

---

Kd for assorted compounds
Tested target: Vasopressin V1 receptor (Rattus norvegicus, UniProt P48974+P30560)
Assay summary: Binding affinity against plasma membrane from rat liver
Positions of bridges follow the written chain, without caps; N, C: chain ends. Non-standard residues stand in square brackets, D forms with d. Residues, ends and D or L forms follow the SMILES beside them. NMeA = CN[C@@H](C)C(=O)O; Mpa = O=C(O)CCS; Sar = CNCC(=O)O
Endpoint: Kd

Compound | Recorded measurement
C[C@@H](C(=O)N[C@H](CCCN=C(N)N)C(=O)NCC(N)=O)N(C)C(=O)[C@@H]1CSSCCC(=O)N[C@@H](Cc2ccc(O)cc2)C(=O)N[C@@H](Cc2ccccc2)C(=O)N[C@@H](CCC(N)=O)C(=O)N[C@@H](CC(N)=O)C(=O)N1 | 290 nM
CN(CC(=O)N[C@H](CCCN=C(N)N)C(=O)NCC(N)=O)C(=O)[C@@H]1CSSC[C@H](N)C(=O)N[C@@H](Cc2ccc(O)cc2)C(=O)N[C@@H](Cc2ccccc2)C(=O)N[C@@H](CCC(N)=O)C(=O)N[C@@H](CC(N)=O)C(=O)N1 | 420 nM
C[C@@H](C(=O)N[C@@H](CCCN=C(N)N)C(=O)NCC(N)=O)N(C)C(=O)[C@@H]1CSSC[C@H](N)C(=O)N[C@@H](Cc2ccccc2)C(=O)N[C@@H](Cc2ccccc2)C(=O)N[C@@H](CCC(N)=O)C(=O)N[C@@H](CC(N)=O)C(=O)N1 (H-CFFQNC[NMeA]RG-NH2; disulfide 1-6) | 110 nM
CC(C)[C@@H]1NC(=O)[C@H](Cc2ccccc2)NC(=O)[C@H](Cc2ccc(O)cc2)NC(=O)CCSSC[C@@H](C(=O)N(C)CC(=O)N[C@@H](CCCN=C(N)N)C(=O)NCC(N)=O)NC(=O)[C@H](CC(N)=O)NC1=O ([Mpa]YFVNC[Sar]RG-NH2; disulfide 1-6) | 27 nM

---

System: Rattus norvegicus
Assay summary: Compound was tested for the vasopressor activity against phenoxybenzamine treated rats, after intravenous injection.
Type: functional
Positions of bridges follow the written chain, without caps; N, C: chain ends. Non-standard residues stand in square brackets, D forms with d. Residues, ends and D or L forms follow the SMILES beside them. NMeA = CN[C@@H](C)C(=O)O; Sar = CNCC(=O)O
Potency for assorted compounds

Compound | Tested target | Potency / IU mg-1
C[C@@H](C(=O)N[C@@H](CCCN=C(N)N)C(=O)NCC(N)=O)N(C)C(=O)[C@@H]1CSSC[C@H](N)C(=O)N[C@@H](Cc2ccccc2)C(=O)N[C@@H](Cc2ccccc2)C(=O)N[C@@H](CCC(N)=O)C(=O)N[C@@H](CC(N)=O)C(=O)N1 (H-CFFQNC[NMeA]RG-NH2; disulfide 1-6) | Rattus norvegicus | 0.57
CN(CC(=O)N[C@@H](CCCN=C(N)N)C(=O)NCC(N)=O)C(=O)[C@@H]1CSSC[C@H](N)C(=O)N[C@@H](Cc2ccccc2)C(=O)N[C@@H](Cc2ccccc2)C(=O)N[C@@H](CCC(N)=O)C(=O)N[C@@H](CC(N)=O)C(=O)N1 (H-CFFQNC[Sar]RG-NH2; disulfide 1-6) | Rattus norvegicus | 0.17
CC(C)[C@H]1NC(=O)[C@H](Cc2ccccc2)NC(=O)[C@@H](Cc2ccc(O)cc2)NC(=O)CCSSC[C@@H](C(=O)N(C)[C@@H](C)C(=O)N[C@@H](CCCN=C(N)N)C(=O)NCC(N)=O)NC(=O)[C@H](CC(N)=O)NC1=O | Rattus norvegicus | 0.69
C[C@@H](C(=O)N[C@@H](CCCN=C(N)N)C(=O)NCC(N)=O)N(C)C(=O)[C@@H]1CSSC[C@H](N)C(=O)N[C@@H](Cc2ccc(O)cc2)C(=O)N[C@@H](Cc2ccccc2)C(=O)N[C@@H](CCC(N)=O)C(=O)N[C@@H](CC(N)=O)C(=O)N1 | Rattus norvegicus | 10.6
